Value source: patent US8703970B2

metric: melting point

> print(dat)
                                   compound  experimental.result
1  CN(C(=O)c1sc2cc(C(=O)O)ccc2c1S)c1ccc2sc3ccccc3c(=O)c2c1 [9 (LG^−=HS^−)]        210 to 212 °C
2  COC(=O)c1ccc2c(Cl)c(C(=O)N(C)c3ccc4sc5ccc(Br)cc5c(=O)c4c3)sc2c1 [10 (LG^−=Cl^−)]        237 to 239 °C
3  CN(C(=O)c1sc2cc(C(=O)O)ccc2c1Sc1ccccc1)c1ccc2sc3ccccc3c(=O)c2c1 [9 (LG^−=PhS^−)]        278 to 279 °C
4  CN(C(=O)c1sc2cc(C(=O)O)ccc2c1SCc1ccccc1)c1ccc2sc3ccccc3c(=O)c2c1 [9 (LG^−=PhCH2S^−)]        151 to 152 °C
5  CN(C(=O)c1sc2cc(C(=O)O)ccc2c1Cl)c1ccc2sc3ccccc3c(=O)c2c1 [9 (LG^−=Cl^−)]        286 to 287 °C

====

- protocol_description: Product quantum yield determination for photochemical leaving group expulsion at 390 nm
- Type: physicochemical
- particulars: 390 nm; 2.0×10^−3 M acid in N2 saturated 75% aq buffer in CH3CN
We begin with a simple list: items and their reported quantum yield Φ for formation of 27.
metric: quantum yield Φ for formation of 27

> print(dat)
                                   molecule  experimental.result
1  CN(C(=O)c1sc2cc(C(=O)O)ccc2c1SCc1ccccc1)c1ccc2sc3ccccc3c(=O)c2c1 [9 (LG^−=PhCH2S^−)]                0.011
2  CN(C(=O)c1sc2cc(C(=O)O)ccc2c1Sc1ccccc1)c1ccc2sc3ccccc3c(=O)c2c1 [9 (LG^−=PhS^−)]                0.017
3  CN(C(=O)c1sc2cc(C(=O)O)ccc2c1Cl)c1ccc2sc3ccccc3c(=O)c2c1 [9 (LG^−=Cl^−)]                0.034
4  CN(C(=O)c1sc2cc(C(=O)O)ccc2c1S)c1ccc2sc3ccccc3c(=O)c2c1 [9 (LG^−=HS^−)]               0.0079
